Molecular target: TDP-43 (Homo sapiens, UniProt Q13148 1-414)
Sequence (Q13148 whole entry): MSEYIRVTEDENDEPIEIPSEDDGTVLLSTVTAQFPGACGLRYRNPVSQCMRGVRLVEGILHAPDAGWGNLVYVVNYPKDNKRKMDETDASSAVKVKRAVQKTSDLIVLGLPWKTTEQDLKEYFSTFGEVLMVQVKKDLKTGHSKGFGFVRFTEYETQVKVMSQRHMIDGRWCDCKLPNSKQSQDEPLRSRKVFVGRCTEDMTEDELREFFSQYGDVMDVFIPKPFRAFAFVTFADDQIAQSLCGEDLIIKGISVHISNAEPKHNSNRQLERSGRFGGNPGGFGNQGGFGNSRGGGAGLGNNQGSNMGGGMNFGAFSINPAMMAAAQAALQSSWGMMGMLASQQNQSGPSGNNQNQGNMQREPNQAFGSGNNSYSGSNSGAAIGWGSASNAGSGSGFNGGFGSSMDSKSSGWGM
Experiment: RNA Bind-n-Seq with designed 260-mer pool; 25 mM Tris-HCl, 150 mM KCl, 3 mM MgCl2, BSA (printed 500 mg/mL), 20 units/mL SUPERase IN; pH not stated; 500 nM RNA pool, 1 h, 4 C; TDP-43 5, 50, 500 nM; high values mean tight binding
Conditions: protein: recombinant; tags: SBP (GST cleaved off with PreScission; pGEX-GST-SBP)
The full ranking holds about 9,900 sequences; the median of “r (bound/input frequency ratio)” is about 0.7, and the highest 2% start at about 6.5. The full list was thinned out, with the highest values kept by preference.
Examples of binders with documented binding signal follow.

Record excerpt, results attached:
ENSMUSG00000029636.416|Wasf3 (ssRNA) RNA: GGGAGUUCUACAGUCCGACGAUCGCUUCGAUAUCCGCAUGCUAUGGAUGGAUGGGUGAGUAUAUGGGUAGAUAAAUGGAUGAGUGGAUGGGUGGGUUAGGUGGGUAAGUAGCUAGGUGGAUGGGUGGGUGGAUACAUGGAUGAGUGGAUGGGUGGAUUGGUGGGUGAGUGGAUAGGUGAAUGGAUGAUAGGUGGUGGAUGGUUGAGUGGGUGGAUUCAUGAUGGAUGGAUGGAUGGAUGGAUGGAUGGAUGGAUGGAUGAGUGGAUGGAUAAUAGGUUGAUGGGUGGAUAGGUAGAUGAGUGACUCUUGCGGUCGCACUAGUGUGGAAUUCUCGGGUGUCAAGG : 6.38 R (bound/input frequency ratio)
ENSMUSG00000029636.410|Wasf3 (ssRNA) RNA: GGGAGUUCUACAGUCCGACGAUCGCUUCGAUAUCCGCAUGCUAGUGUAAACUCAGGCAGAUGAAUAGCUGGAGAGUGGGUGGAUGGAUGGGUGAGUAUAUGGGUAGAUAAAUGGAUGAGUGGAUGGGUGGGUUAGGUGGGUAAGUAGCUAGGUGGAUGGGUGGGUGGAUACAUGGAUGAGUGGAUGGGUGGAUUGGUGGGUGAGUGGAUAGGUGAAUGGAUGAUAGGUGGUGGAUGGUUGAGUGGGUGGAUUCAUGAUGGAUGGAUGGAUGGAUGGAUGGAUGGAUGGAUGGAUGAGUGGAUGCUCUUGCGGUCGCACUAGUGUGGAAUUCUCGGGUGUCAAGG : 2.97 R (bound/input frequency ratio)
ENSMUSG00000029636.395|Wasf3|50:54 (ssRNA) RNA: GGGAGUUCUACAGUCCGACGAUCGCUUCGAUAUCCGCAUGCUAAAUCUACAGAUCGCAAGGUUGUUUUAUAUUAUCCCCUUAUAGUGUUCCAACACAAUUGUAGCUGAGUUUCAGAUACGGUAUUUUCUCAUAGUGUAAACUCAGGCAGAUGAAUAGCUGGAGAGUGGGUGGAUGGAUGGGUGAGUAUAUGGGUAGAUAAAUGGAUGAGUGGAUGGGUGGGUUAGGUGGGUAAGUAGCUAGGUGGAUGGGUGGGUGGAUACAUGGAUGAGUGGAUGGGUGGAUUGGUGGGUGAGUGGAUAGGUCUCUUGCGGUCGCACUAGUGUGGAAUUCUCGGGUGUCAAGG : 4.72 R (bound/input frequency ratio)
ENSMUSG00000029636.403|Wasf3 (ssRNA) RNA: GGGAGUUCUACAGUCCGACGAUCGCUUCGAUAUCCGCAUGCUAAUGUGUAUUGUAGCUGAGUUUCAGAUACGGUAUUUUCUCAUAGUGUAAACUCAGGCAGAUGAAUAGCUGGAGAGUGGGUGGAUGGAUGGGUGAGUAUAUGGGUAGAUAAAUGGAUGAGUGGAUGGGUGGGUUAGGUGGGUAAGUAGCUAGGUGGAUGGGUGGGUGGAUACAUGGAUGAGUGGAUGGGUGGAUUGGUGGGUGAGUGGAUAGGUGAAUGGAUGAUAGGUGGUGGAUGGUUGAGUGGGUGGAUUCAUGAUGGACUCUUGCGGUCGCACUAGUGUGGAAUUCUCGGGUGUCAAGG : 15.4 R (bound/input frequency ratio)

Exercise: So what's the measured binding signal for this one? ENSMUSG00000032194.9|Kank2 (ssRNA) RNA: GGGAGUUCUACAGUCCGACGAUCGCUUCGAUAUCCGCAUGCUAGAGUGAAUACAGGGAGGAGCCAGUGAGUCCCCCAGGACCCACCAGCCACAAGCCACGCAUCAAACCGUCCCUCCUCCAUCCCUCUGUCCCAUUCUGCCUCGGCAUUCCUCAGCCCCUGAACUUCCCUGAGGGAGCCCUGACAUCUACCAGGCUCAAGCUCCUGGAAGCCUUUCCCAGCACCCUGGGUUCAAAGCCAGAAAGCCAAGCUACAUUCUCCUCCCAGUUGGCACCAGUUGACAACGCCUUGGGUGUGGGUUUCUCUCUUGCGGUCGCACUAGUGUGGAAUUCUCGGGUGUCAAGG
Solution: 1.04 R (bound/input frequency ratio)

Exercise: // next record ENSMUSG00000029636.407|Wasf3 (ssRNA) RNA: GGGAGUUCUACAGUCCGACGAUCGCUUCGAUAUCCGCAUGCUAAUACGGUAUUUUCUCAUAGUGUAAACUCAGGCAGAUGAAUAGCUGGAGAGUGGGUGGAUGGAUGGGUGAGUAUAUGGGUAGAUAAAUGGAUGAGUGGAUGGGUGGGUUAGGUGGGUAAGUAGCUAGGUGGAUGGGUGGGUGGAUACAUGGAUGAGUGGAUGGGUGGAUUGGUGGGUGAGUGGAUAGGUGAAUGGAUGAUAGGUGGUGGAUGGUUGAGUGGGUGGAUUCAUGAUGGAUGGAUGGAUGGAUGGAUGGAUGGACUCUUGCGGUCGCACUAGUGUGGAAUUCUCGGGUGUCAAGG
Solution: 3.52 R (bound/input frequency ratio)

Exercise: // next record ENSMUSG00000029636.392|Wasf3|68:72 (ssRNA) RNA: GGGAGUUCUACAGUCCGACGAUCGCUUCGAUAUCCGCAUGCUACAUUUCAUGCUUAUACUUAAUCUACAGAUCGCAAGGUUGUUUUAUAUUAUCCCCUUAUAGUGUUCCAACACAAUUGUAGCUGAGUUUCAGAUACGGUAUUUUCUCAUAGUGUAAACUCAGGCAGAUGAAUAGCUGGAGAGUGGGUGGAUGGAUGGGUGAGUAUAUGGGUAGAUAAAUGGAUGAGUGGAUGGGUGGGUUAGGUGGGUAAGUAGCUAGGUGGAUGGGUGGGUGGAUACAUGGAUGAGUGGAUGGGUGGAUUGCUCUUGCGGUCGCACUAGUGUGGAAUUCUCGGGUGUCAAGG
Solution: 4.14 R (bound/input frequency ratio)
